- Experimental system: C. difficile toxin A from strain VPI10463 (ATCC 43255), toxinotype 0 (Clostridium difficile, UniProt P16154 1-2710)
- Sequence (P16154 whole entry): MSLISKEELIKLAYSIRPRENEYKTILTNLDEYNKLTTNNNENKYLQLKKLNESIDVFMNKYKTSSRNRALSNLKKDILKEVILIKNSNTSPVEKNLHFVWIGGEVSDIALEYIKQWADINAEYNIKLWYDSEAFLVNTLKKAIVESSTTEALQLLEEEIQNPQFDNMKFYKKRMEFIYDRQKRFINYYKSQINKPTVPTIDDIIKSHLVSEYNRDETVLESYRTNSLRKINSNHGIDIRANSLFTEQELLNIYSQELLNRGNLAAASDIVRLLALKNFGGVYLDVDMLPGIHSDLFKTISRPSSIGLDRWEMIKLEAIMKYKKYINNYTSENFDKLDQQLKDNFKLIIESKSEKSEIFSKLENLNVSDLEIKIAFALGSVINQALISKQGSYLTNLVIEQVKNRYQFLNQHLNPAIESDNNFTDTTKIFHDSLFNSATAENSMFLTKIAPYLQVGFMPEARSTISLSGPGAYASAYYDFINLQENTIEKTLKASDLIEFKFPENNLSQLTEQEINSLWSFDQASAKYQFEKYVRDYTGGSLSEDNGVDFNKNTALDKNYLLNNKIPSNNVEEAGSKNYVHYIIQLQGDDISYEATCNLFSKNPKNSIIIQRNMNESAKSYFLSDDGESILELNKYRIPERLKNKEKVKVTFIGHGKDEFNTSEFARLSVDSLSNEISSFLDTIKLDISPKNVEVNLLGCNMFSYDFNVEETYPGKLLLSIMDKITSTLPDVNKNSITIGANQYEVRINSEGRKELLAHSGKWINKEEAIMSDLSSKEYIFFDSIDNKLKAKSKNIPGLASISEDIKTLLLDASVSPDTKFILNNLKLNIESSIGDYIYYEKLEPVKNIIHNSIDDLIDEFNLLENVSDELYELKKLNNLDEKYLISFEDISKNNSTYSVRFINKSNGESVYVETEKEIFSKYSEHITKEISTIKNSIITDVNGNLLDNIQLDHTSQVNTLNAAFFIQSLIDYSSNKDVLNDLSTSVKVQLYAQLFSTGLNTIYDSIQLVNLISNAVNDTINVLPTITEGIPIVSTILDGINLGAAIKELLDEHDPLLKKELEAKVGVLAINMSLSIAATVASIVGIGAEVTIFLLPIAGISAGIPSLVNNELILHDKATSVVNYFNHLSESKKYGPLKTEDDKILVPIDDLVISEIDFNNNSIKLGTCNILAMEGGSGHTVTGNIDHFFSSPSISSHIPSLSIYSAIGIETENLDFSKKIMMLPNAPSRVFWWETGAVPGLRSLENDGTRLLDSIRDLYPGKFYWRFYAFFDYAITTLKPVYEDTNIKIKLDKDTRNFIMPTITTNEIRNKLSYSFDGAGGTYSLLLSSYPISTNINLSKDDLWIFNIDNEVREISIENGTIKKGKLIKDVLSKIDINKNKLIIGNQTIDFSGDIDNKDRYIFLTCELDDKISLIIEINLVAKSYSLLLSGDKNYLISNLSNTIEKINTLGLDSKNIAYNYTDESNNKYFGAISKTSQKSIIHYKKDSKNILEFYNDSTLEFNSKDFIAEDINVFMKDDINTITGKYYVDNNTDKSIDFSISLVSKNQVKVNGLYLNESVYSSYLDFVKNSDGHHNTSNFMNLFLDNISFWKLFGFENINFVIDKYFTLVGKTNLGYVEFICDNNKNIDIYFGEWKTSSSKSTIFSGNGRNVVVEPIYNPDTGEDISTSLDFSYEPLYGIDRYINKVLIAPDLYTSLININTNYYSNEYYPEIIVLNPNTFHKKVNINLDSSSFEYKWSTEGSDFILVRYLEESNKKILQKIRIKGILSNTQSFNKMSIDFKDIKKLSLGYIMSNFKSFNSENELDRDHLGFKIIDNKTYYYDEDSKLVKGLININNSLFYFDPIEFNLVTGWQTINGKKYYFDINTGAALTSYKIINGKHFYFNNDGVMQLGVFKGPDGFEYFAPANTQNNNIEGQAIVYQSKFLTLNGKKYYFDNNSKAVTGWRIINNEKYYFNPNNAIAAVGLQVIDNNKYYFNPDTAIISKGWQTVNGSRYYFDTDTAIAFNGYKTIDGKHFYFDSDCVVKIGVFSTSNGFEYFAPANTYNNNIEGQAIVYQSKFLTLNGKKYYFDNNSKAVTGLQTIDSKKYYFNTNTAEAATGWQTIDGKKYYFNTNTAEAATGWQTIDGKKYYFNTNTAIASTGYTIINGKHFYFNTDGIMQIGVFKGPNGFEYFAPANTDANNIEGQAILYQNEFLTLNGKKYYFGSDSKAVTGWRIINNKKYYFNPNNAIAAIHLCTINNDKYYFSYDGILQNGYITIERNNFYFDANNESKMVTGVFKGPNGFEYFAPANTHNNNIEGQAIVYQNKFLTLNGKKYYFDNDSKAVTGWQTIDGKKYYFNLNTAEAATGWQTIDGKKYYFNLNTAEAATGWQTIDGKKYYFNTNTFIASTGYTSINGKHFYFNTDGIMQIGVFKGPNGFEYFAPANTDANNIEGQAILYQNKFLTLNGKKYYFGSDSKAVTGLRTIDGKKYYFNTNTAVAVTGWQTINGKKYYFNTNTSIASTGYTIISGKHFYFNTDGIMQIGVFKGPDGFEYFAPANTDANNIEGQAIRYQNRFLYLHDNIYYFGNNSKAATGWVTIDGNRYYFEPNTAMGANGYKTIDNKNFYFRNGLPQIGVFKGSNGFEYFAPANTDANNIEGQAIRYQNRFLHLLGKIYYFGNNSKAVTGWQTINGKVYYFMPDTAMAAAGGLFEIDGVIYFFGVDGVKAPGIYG
- Run description: cell-based or functional assay
Property: Cytotox NT50, pM (Vero cells)

Consider A3 antibody (antibody, V domains shown) VH: MQLLESGGGLVKPGGSLRLSCAASGFTFSNAWMSWVRQGPGKGLEWVGRIKSKTDGGTTDYAAPVKGRFSISRNDSNNTLFLQMNSLKTEDTAVYYCTTGPQIVVVAGATSRDQPNYYYYGLDVWGLGTTVTVSS VL: QSVLTQPPSASGTPGQRVTISCSGSSSNIGINTVNWYQQLPGTAPKLLIYKSNLRPSGVPDRFSGSKSGTSASLAISGLRSEDEADYYCAAWDDSLTGLYVFGTGTKVTVLG . Its measured Cytotox NT50, pM (Vero cells) is 980 pM
